Every entry's value here was drawn from patent US10076519B2.

Tested on: rabbit skeletal myofibrils (fast skeletal myofibrils)
Assay Method Text: Activation of fast skeletal myofibrils (PUMA assay, PK/LDH-coupled ATPase at pCa25)
Assay type: biochemical
Protocol Conditions: AC1.4 determined according to the procedure of Example 39; reported as class symbols
Measured Endpoint: Mean AC1.4

The cases that follow already have their Mean AC1.4 on record.
>>> print(df.to_string())
                                   compound  measured_endpoint         result
0  Nc1n[nH]c2ccc(-c3ccc(NCC4(c5ccccc5F)CC4)nn3)cc12         Mean AC1.4    A (A=<1 uM)
1  Nc1nc(-c2ccc(NCC3(c4ncccc4F)CCC3)nn2)c[nH]1         Mean AC1.4   D (D=>20 uM)
2  NC(=O)c1cccc(-c2ccc(NCCc3ccc(Cl)cc3)nn2)c1         Mean AC1.4   D (D=>20 uM)
3  CCc1n[nH]c2ccc(-c3ccc(NCC(C)(C)c4ccc(F)cc4)nn3)cc12         Mean AC1.4  B (B=1-10 uM)
4  CC(C)(CNc1ccc(-c2cc(C(N)=O)ccn2)nn1)c1ccc(F)cc1         Mean AC1.4    A (A=<1 uM)
5  CC(C)(CNc1ccc(-c2ccc3[nH]nc(CO)c3c2)nn1)c1ccc(F)cc1         Mean AC1.4    A (A=<1 uM)
6  CC(CNc1ccc(-c2cccc(C(N)=O)c2)nn1)N1CCCC1=O (centres unmarked)         Mean AC1.4   D (D=>20 uM)
7  CC(C)(CNc1ccc(-c2ccc3[nH]c(=O)oc3c2)nn1)c1ccc(F)cc1         Mean AC1.4    A (A=<1 uM)
8    NC(=O)c1cccc(-c2ccc(NCCc3cccnc3)nn2)c1         Mean AC1.4   D (D=>20 uM)
9  COc1cccnc1C1(CNc2ccc(-c3cc(C(N)=O)ccc3F)nn2)CCC1         Mean AC1.4  B (B=1-10 uM)

Task item: Need Mean AC1.4, item `CC(C)(CNc1ccc(-c2cccc(C(N)=O)c2)nn1)c1ncc(F)cc1F`
Reply: B (B=1-10 uM)

Task item: Sample CCCC(CNc1ccc(-c2cccc(C(N)=O)c2)nn1)c1ccccc1Cl (centres unmarked) — what was its Mean AC1.4?
Reply: B (B=1-10 uM)
